EXPERIMENTAL_SYSTEM: T1, GST–PPARα fusion protein (purified ligand binding domain of PPARα)
T1 sequence (Q07869 whole entry, species assumed, looked up): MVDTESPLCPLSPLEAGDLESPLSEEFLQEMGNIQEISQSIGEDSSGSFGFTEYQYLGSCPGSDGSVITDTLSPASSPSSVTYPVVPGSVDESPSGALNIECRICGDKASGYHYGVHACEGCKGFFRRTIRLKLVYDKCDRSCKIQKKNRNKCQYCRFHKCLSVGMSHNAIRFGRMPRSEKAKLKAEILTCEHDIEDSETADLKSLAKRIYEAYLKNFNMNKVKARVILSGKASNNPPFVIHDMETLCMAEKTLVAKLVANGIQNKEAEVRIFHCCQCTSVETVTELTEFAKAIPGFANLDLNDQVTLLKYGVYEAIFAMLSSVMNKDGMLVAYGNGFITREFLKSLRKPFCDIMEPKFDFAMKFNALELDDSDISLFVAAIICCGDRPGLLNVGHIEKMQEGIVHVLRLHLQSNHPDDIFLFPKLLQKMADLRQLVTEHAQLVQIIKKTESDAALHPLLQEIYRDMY
PROTOCOL_NOTES: FRET or BRET; homogeneous TR-FRET as a1, 12-concentration dose–response of fenofibric acid; the EC50 is of the compound; delta ratio in % of the reference compound RO4899100 at 10 μM
Where no end group is shown, it is not given here. The star is where a group is joined. Biotin = O=C1N[C@H]2[C@H](CS[C@H]2CCCCC(=O)*)N1; Ahx = NCCCCCC(=O)O
METRIC: delta ratio with fenofibric acid (%)
Use % as the unit, but write only the number.

BINDER: {Biotin-Ahx}-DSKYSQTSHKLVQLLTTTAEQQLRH (source: synthetic peptide (Jerini or Biosynthan, Berlin)) [SRC1_M1 cofactor peptide (steroid receptor co-activator 1, motif 1)]
METRIC: delta ratio with fenofibric acid
VALUE_UNIT: %
READOUT_VALUE: 39
//
BINDER: {Biotin-Ahx}-ADPASNLGLEDIIRKALMGSF (nuclear receptor co-repressor (NCoR), ID2; also called NCoR2; NcoR2; source: synthetic peptide (Jerini or Biosynthan, Berlin)) [NCoR ID2 cofactor peptide (nuclear receptor co-repressor, interaction domain 2)]
METRIC: delta ratio with fenofibric acid
VALUE_UNIT: %
READOUT_VALUE: -55
//
BINDER: {Biotin-Ahx}-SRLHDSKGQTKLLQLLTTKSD (transcriptional intermediary factor 2 (TIF2), motif 1, residues 630-650; source: synthetic peptide (Jerini or Biosynthan, Berlin)) [TIF2_M1 cofactor peptide (transcriptional intermediary factor 2, motif 1)]
METRIC: delta ratio with fenofibric acid
VALUE_UNIT: %
READOUT_VALUE: 34
//
BINDER: {Biotin-Ahx}-SPKKKENALLRYLLDKDDTK [TIF2_M3 cofactor peptide (transcriptional intermediary factor 2, motif 3)]
METRIC: delta ratio with fenofibric acid
VALUE_UNIT: %
READOUT_VALUE: 25
//
BINDER: {Biotin-Ahx}-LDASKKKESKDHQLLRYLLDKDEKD (source: synthetic peptide (Jerini or Biosynthan, Berlin)) [SRC1_M3 cofactor peptide (steroid receptor co-activator 1, motif 3)]
METRIC: delta ratio with fenofibric acid
VALUE_UNIT: %
READOUT_VALUE: 47

// field: delta ratio with fenofibric acid; key: {Biotin-Ahx}-STHGTSLKEKHKILHRLLQDS [TIF2_M2 cofactor peptide (transcriptional intermediary factor 2, motif 2)] ; value = 44
